Just for reference, patent US10874687B1 is where these values come from.

Test system: HCoV
Measurement notes: Protection of MES-1 cells from virus-induced cytopathogenicity (MTT)
Format: cell-based
Experimental setup: unidentified human coronavirus, 72 h, 50% protection of MES-1 cells, day 3 post-infection, Table 3B
Experimental: After a 3-day incubation at 37° C. cell viability was determined by the MTT method as described by Pauwels et al. (J. Virol. Methods 1988, 20, 309-321).
Consider the following compounds; for each one, report its EC50.
Give bare numbers, in nM.

[[record]]
smiles_input = "CNc1nc(N)nc2c1ncn2[C@@H]1O[C@H](CO[P@@](=O)(N[C@@H](C)C(=O)OC(C)C)Oc2ccccc2)[C@@H](O)[C@@]1(C)F"
reported_measurement = 2000


API: the following record is the query input.
// EC50 value for CNc1nc(N)nc2c1ncn2[C@@H]1O[C@H](CO[P@](=O)(N[C@@H](C)C(=O)OC(C)C)Oc2ccccc2)[C@@H](O)[C@@]1(C)F : 2200

---

Measurement notes: Plasma PK of metabolites in non-human primates after oral Compound 2A
Experimental setup: cynomolgus, cynomolgus monkey, in vivo, 30 mg/kg
Readout name: AUC(0-t) (µM·h)
Give bare numbers, in µM·h.

For record CNc1nc(N)nc2c1ncn2[C@@H]1O[C@H](CO[P@@](=O)(N[C@@H](C)C(=O)OC(C)C)Oc2ccccc2)[C@@H](O)[C@@]1(C)F the listed AUC(0-t) is 0.44

---

Would you mind telling me the reported CC50 of each entry?
Tested on: mock infected BHK cells
Measurement notes: Cytotoxicity in mock infected BHK-21 cells (MTT)
Format: cell-based, hamster
Experimental setup: mock infected BHK cells; MTT; 3 days; Table 2B

Here is how some molecules turned out for CC50.
[[record]]
molecule = "CNc1nc(N)nc2c1ncn2[C@@H]1O[C@H](CO[P@](=O)(N[C@@H](C)C(=O)OC(C)C)Oc2ccccc2)[C@@H](O)[C@@]1(C)F"
readout_name = "CC50"
reported_measurement = "> 100 µM"

[[record]]
molecule = "CNc1nc(N)nc2c1ncn2[C@@H]1O[C@H](CO[P@@](=O)(N[C@@H](C)C(=O)OC(C)C)Oc2ccccc2)[C@@H](O)[C@@]1(C)F"
readout_name = "CC50"
reported_measurement = "> 100 µM"


The reported CC50 of the molecule CC(C)OC(=O)[C@H](C)N[P@](=O)(OC[C@H]1O[C@@H](n2ccc(=O)[nH]c2=O)[C@](C)(F)[C@@H]1O)Oc1ccccc1 [sofosbuvir, reference compound] was > 100 µM

---

Measurement notes: in vitro
Experimental setup: human
Readout name: CC50

The molecule listed as CNc1nc(N)nc2c1ncn2[C@@H]1O[C@H](CO[P@@](=O)(N[C@@H](C)C(=O)OC(C)C)Oc2ccccc2)[C@@H](O)[C@@]1(C)F [Compound 1A] has a reported CC50 of > 86 µM

---

Measurement notes: in vitro
Experimental setup: human, Neutral Red CC50
Readout name: CC50

# CC50 of CNc1nc(N)nc2c1ncn2[C@@H]1O[C@H](CO[P@@](=O)(N[C@@H](C)C(=O)OC(C)C)Oc2ccccc2)[C@@H](O)[C@@]1(C)F [Compound 1A] = > 50 µM

---

Measurement notes: Plasma PK of metabolites in non-human primates after oral Compound 2A
Experimental setup: cynomolgus, cynomolgus monkey, in vivo, 30 mg/kg
Readout name: Cmax (nM)
Numbers only, in nM.

[[record]]
smiles_input = "CNc1nc(N)nc2c1ncn2[C@@H]1O[C@H](CO[P@@](=O)(N[C@@H](C)C(=O)OC(C)C)Oc2ccccc2)[C@@H](O)[C@@]1(C)F"
readout_name = "Cmax"
reported_measurement = 640


Here is another compound to look at.
For this compound ( C[C@@]1(F)[C@H](O)[C@@H](CO)O[C@H]1n1cnc2c(=O)[nH]c(N)nc21 ), measured Cmax is 160
